Data origin: paper PMC9636331

assay: Plasma pharmacokinetics of iptacopan; format: in vivo, human; conditions: human, plasma, oral, 25 mg
READOUT TYPE: AUC(0-t)

(Q) Any idea what its AUC(0-t) is? The compound is CCO[C@H]1CCN(Cc2c(OC)cc(C)c3[nH]ccc23)[C@H](c2ccc(C(=O)O)cc2)C1
(A) 6290 ng·h/mL
